Target: T1, human MIC-1 receptor (hGFRAL, GDNF family receptor alpha like), full length (human, UniProt Q6UXV0 19-394)
T1 sequence (looked up): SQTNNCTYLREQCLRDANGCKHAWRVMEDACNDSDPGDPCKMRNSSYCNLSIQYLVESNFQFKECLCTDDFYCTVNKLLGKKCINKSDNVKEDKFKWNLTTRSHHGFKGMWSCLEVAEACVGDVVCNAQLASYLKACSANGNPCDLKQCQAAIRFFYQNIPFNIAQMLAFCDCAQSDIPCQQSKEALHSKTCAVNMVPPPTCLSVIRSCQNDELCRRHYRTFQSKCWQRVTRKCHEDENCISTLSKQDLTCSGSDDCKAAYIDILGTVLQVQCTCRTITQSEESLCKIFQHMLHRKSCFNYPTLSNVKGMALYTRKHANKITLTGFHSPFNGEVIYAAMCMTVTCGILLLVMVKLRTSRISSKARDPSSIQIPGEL
Assay: cell-based or functional assay
experimental_readout: Emax (%)
Respond with the bare value in %.

Please report the recorded Emax (%) for MIC-1(R2A,N3E,H18E) (ligand) AAEGDHCPLGPGRCCRLETVRASLEDLGWADWVLSPREVQVTMCIGACPSQFRAANMHAQIKTSLHRLKPDTVPAPCCVPASYNPMVLIQKTDTGVSLQTYDDLLAKDCHCI .
100

Please report the recorded Emax (%) for AASPAGSPTSTEEGTSESATPESGPG-MIC-1-Δ1-3 (ligand) AASPAGSPTSTEEGTSESATPESGPGGDHCPLGPGRCCRLHTVRASLEDLGWADWVLSPREVQVTMCIGACPSQFRAANMHAQIKTSLHRLKPDTVPAPCCVPASYNPMVLIQKTDTGVSLQTYDDLLAKDCHCI .
100
